Origin of values: patent US20160207930A1

# target-entity: NK1 Receptor (Homo sapiens)
# Construct: Measurement of NK1 Receptor Mediated Intracellular [Ca^2+]; Mobilization in U251 MG Cells Using FLIPR; endogenous in cells
# Sequence (P25103 whole entry): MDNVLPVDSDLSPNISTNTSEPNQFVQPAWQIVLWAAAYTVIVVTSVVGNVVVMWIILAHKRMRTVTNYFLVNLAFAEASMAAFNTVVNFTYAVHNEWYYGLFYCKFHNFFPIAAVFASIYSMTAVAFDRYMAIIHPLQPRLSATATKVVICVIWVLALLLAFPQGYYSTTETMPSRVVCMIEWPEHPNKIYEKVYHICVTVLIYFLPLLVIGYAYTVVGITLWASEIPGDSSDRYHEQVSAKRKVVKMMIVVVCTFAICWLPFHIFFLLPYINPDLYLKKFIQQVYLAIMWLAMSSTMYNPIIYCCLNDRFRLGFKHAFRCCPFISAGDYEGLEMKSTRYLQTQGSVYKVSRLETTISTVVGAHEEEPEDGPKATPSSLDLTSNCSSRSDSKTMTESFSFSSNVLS
# assay-info: NK1 receptor mediated intracellular [Ca2+] mobilization in U251 MG cells using FLIPR
# experimental-setup: antagonism of Substance P (EC80), Fluo-4, read-out: NK1R mediated intracellular [Ca^2+] mobilization IC 50
recorded-metric: IC50 (nM)

[A] Cc1ccc([C@@H]2[C@H]3CCC(=O)N3CCN2C(=O)N(C)Cc2cc(C(F)(F)F)cc(C(F)(F)F)c2)c(C)c1 (racemic)
[B] CCc1cc([C@@H](C)N(C)C(=O)N2CCN3C(=O)CC[C@H]3[C@@H]2c2ccsc2C)cc(C(F)(F)F)c1
[C] COc1cccc([C@H]2[C@@H]3CCC(=O)N3CCN2C(=O)N(C)[C@H](C)c2cc(C(F)(F)F)cc(C(F)(F)F)c2)c1C
Order the entries above by descending IC50. Return the labels ranked in the requested order, please.
B, C, A
